Exercise: for every item that follows, state its recorded IC50.
biological target: hDAT (Homo sapiens); construct: YFP (yellow-fluorescent protein); assay: Uptake inhibition assay, [3H]MPP+ uptake in transfected HEK293 cells
Sequence (Q01959 whole entry): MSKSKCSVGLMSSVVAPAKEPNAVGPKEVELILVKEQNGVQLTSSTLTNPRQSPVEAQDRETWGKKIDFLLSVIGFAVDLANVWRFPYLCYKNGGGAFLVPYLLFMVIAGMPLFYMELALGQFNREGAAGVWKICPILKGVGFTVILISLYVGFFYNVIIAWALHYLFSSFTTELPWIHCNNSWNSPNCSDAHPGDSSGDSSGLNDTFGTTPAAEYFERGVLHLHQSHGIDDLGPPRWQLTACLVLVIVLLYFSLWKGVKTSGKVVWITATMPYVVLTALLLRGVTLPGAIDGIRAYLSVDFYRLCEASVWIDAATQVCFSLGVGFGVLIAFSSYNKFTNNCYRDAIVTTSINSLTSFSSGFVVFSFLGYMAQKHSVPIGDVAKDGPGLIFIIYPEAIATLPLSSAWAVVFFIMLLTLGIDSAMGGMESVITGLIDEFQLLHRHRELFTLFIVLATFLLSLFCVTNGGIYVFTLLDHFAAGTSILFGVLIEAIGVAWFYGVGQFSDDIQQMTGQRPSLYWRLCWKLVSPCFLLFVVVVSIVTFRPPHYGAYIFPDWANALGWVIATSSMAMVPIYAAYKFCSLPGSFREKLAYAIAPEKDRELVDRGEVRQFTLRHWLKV
One number for each entry, in nM.

Field: example entries. Status: answers known.
CCCC(NCC)C(=O)c1ccccc1 (stereo not drawn) ... 100
CCCC(NCC)C(=O)c1ccc(C)cc1 (stereo not drawn) ... 140
CCCC(NCC)C(=O)c1ccc2c(c1)OCO2 (stereo not drawn) ... 130

Take each entry in turn and give its IC50.
1. CCCC(NC)C(=O)c1ccc(C)cc1 (stereo not drawn)
2. CCCC(NC)C(=O)c1ccccc1 (stereo not drawn)
3. CCCC(NC)C(=O)c1ccc2c(c1)OCO2 (stereo not drawn)

Result:
1. 290
2. 210
3. 510
